The reported measurements were obtained from patent US20090203663A1.

Experimental system: human α5β1 (Homo sapiens, UniProt P05556+P08648)
Construct: human α5β1 purified from placenta
Sequence (P08648 42-894 limits assumed): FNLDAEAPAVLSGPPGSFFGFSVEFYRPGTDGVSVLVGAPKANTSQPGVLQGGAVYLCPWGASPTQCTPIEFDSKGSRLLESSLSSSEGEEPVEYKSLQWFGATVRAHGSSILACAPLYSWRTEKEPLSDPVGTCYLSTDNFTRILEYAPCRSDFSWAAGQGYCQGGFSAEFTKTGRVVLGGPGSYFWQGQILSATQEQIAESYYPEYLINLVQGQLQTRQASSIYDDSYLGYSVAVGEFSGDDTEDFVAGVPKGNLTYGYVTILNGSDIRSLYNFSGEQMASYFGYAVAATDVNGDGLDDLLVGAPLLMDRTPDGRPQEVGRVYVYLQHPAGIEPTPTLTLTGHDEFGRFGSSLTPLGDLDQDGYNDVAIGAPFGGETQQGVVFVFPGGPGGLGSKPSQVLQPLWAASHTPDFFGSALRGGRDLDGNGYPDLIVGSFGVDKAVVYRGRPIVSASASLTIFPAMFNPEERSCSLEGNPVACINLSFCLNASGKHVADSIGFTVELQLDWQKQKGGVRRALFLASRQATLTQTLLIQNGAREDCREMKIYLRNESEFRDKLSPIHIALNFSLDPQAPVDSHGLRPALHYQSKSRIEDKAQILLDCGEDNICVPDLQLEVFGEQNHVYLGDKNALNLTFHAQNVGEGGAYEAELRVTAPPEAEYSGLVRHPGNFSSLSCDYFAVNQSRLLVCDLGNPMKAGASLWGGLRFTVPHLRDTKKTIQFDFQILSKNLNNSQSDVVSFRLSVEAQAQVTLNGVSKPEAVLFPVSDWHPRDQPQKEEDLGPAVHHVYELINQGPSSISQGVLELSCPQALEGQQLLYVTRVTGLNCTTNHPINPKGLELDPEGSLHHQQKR
Sequence (P08648 895-1049 partner limits assumed): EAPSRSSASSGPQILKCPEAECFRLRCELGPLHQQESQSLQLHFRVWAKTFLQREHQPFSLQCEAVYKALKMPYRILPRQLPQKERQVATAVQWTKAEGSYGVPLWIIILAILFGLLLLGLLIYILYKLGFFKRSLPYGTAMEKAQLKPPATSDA
Sequence (P05556 21-798): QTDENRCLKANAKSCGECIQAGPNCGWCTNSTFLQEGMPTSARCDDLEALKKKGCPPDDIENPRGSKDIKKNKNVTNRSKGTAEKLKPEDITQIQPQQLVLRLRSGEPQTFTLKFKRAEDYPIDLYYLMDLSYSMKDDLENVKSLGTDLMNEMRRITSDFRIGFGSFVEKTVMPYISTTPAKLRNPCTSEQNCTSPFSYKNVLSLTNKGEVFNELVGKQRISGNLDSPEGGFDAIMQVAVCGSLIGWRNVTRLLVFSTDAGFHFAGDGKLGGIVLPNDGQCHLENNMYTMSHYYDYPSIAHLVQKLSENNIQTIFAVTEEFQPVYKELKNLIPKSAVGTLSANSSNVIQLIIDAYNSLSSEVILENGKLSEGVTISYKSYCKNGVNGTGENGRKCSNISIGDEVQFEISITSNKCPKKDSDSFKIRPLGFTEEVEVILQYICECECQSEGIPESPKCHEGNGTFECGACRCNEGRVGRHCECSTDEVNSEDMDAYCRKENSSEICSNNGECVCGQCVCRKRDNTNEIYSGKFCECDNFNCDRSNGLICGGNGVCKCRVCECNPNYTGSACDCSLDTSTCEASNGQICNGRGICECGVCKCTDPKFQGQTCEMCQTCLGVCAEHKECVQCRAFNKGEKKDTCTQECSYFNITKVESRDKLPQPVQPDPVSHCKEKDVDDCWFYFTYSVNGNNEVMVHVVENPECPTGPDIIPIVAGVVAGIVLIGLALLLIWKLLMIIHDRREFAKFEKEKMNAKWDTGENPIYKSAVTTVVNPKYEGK
Test protocol: In vitro binding assay: inhibition of α5β1 integrin binding to human fibronectin fragment Fn9-10 (Origen electrochemiluminescence)
Condition details: α5β1 integrin binding to biotinylated Fn9-10; IC50 data; unit inferred
pIC50: −log10 of the molar value.
Recorded metric: pIC50

>>> print(df.to_string())
                            smiles_notation  numeric_result
0  N#Cc1cccc(CN2CCC(Oc3ccc(C[C@H](NC(=O)c4c(Cl)cccc4Cl)C(=O)O)cc3)CC2)c1            5.77
1  O=C(N[C@@H](Cc1ccc(O[C@H]2CCCN(Cc3cc(F)ccc3F)C2)cc1)C(=O)O)c1c(Cl)cccc1Cl            5.39

P = Cc1cc(C(=O)N2CC(Oc3ccc(C[C@H](NC(=O)c4c(Cl)cccc4Cl)C(=O)O)cc3)C2)ccc1F
Q = CN1CCC(Oc2ccc(C[C@H](NC(=O)c3c(Cl)cccc3Cl)C(=O)O)cc2)CC1
Q: Hey, which is lower on measured pIC50, P or Q ? Pick one; state its label.
Ans: P
